This collection of values is drawn from patent US9556139B2.

Target: human DP2 (Homo sapiens (Human), UniProt Q9Y5Y4)
Sequence (Q9Y5Y4 whole entry): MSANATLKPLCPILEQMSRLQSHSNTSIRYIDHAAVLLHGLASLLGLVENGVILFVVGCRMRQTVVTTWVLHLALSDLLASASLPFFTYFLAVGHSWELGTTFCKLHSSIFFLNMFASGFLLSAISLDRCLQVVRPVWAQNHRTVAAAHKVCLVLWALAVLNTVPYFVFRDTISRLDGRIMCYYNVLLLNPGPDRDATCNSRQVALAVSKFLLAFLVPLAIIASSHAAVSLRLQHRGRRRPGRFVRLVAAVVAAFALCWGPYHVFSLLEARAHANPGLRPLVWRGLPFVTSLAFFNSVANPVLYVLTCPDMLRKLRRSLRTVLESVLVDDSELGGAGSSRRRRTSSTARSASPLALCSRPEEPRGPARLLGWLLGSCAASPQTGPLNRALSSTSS
Experiment: DP-2 Binding Inhibition Assay (3H-PGD2 binding to membranes of K562 cells expressing DP2)
Conditions: read-out: EC50 (nM) 4% HSA; inhibition of 3H-PGD2 binding, 4% HSA
MEASURE: EC50 (nM)

- COMPOUND: "CSc1ccc(C2CCCC(NC(=O)c3ccc(Oc4cc5c(cc4Cl)C(C(=O)O)CCO5)cc3)C2)cc1 (stereo not drawn)"
  MEASURE: "EC50"
  OBS_VALUE: 430
- COMPOUND: "O=C(NCCc1c(Cl)cccc1Cl)c1ccc(Oc2cc3c(cc2Cl)C(C(=O)O)CCO3)cc1 (stereo not drawn)"
  MEASURE: "EC50"
  OBS_VALUE: 165
- COMPOUND: "O=C(NC1CN(c2cccc(C(F)(F)F)c2)C1)c1ccc(Oc2cc3c(cc2Cl)C(C(=O)O)CCO3)cc1 (stereo not drawn)"
  MEASURE: "EC50"
  OBS_VALUE: 4320
- COMPOUND: "O=C(NC1CCCC(c2ccccc2)C1)c1ccc(Oc2cc3c(cc2Cl)C(C(=O)O)CCO3)cc1 (stereo not drawn)"
  MEASURE: "EC50"
  OBS_VALUE: 1650
- COMPOUND: "O=C(NCCc1ccc2ccccc2c1)c1ccc(Oc2cc3c(cc2Cl)C(C(=O)O)CCO3)cc1 (stereo not drawn)"
  MEASURE: "EC50"
  OBS_VALUE: 234
- COMPOUND: "O=C(NC1CCCC(c2ccc(Cl)cc2)C1)c1ccc(Oc2cc3c(cc2Cl)C(C(=O)O)CCO3)cc1 (stereo not drawn)"
  MEASURE: "EC50"
  OBS_VALUE: 183
- COMPOUND: "O=C(NCCc1ccccc1OC(F)(F)F)c1ccc(Oc2cc3c(cc2Cl)C(C(=O)O)CCO3)cc1 (stereo not drawn)"
  MEASURE: "EC50"
  OBS_VALUE: 153
- COMPOUND: "O=C(NC1CCN(c2cccc(Cl)c2)C1)c1ccc(Oc2cc3c(cc2Cl)C(C(=O)O)CCO3)cc1 (stereo not drawn)"
  MEASURE: "EC50"
  OBS_VALUE: 206
- COMPOUND: "O=C(NCCc1ccc(Br)cc1)c1ccc(Oc2cc3c(cc2Cl)C(C(=O)O)CCO3)cc1 (stereo not drawn)"
  MEASURE: "EC50"
  OBS_VALUE: 327
- COMPOUND: "O=C(NCCc1ccc(Cl)cc1)c1ccc(Oc2cc3c(cc2C2CC2)C(C(=O)O)CCO3)cc1 (stereo not drawn)"
  MEASURE: "EC50"
  OBS_VALUE: 150
- COMPOUND: "O=C(NCCc1ccc(-c2ccccc2Cl)cc1)c1ccc(Oc2cc3c(cc2Cl)C(C(=O)O)CCO3)cc1 (stereo not drawn)"
  MEASURE: "EC50"
  OBS_VALUE: 160
- COMPOUND: "O=C(NCCc1ccc(-c2ccccc2Cl)cc1Cl)c1ccc(Oc2cc3c(cc2Cl)C(C(=O)O)CCO3)cc1 (stereo not drawn)"
  MEASURE: "EC50"
  OBS_VALUE: 137
- COMPOUND: "O=C(NCCc1ccc(Cl)c(Cl)c1)c1ccc(Oc2cc3c(cc2Cl)C(C(=O)O)CCO3)cc1 (stereo not drawn)"
  MEASURE: "EC50"
  OBS_VALUE: 239
- COMPOUND: "O=C(NCC(F)(F)c1ccc(Cl)cc1)c1ccc(Oc2cc3c(cc2Cl)C(C(=O)O)CCO3)cc1 (stereo not drawn)"
  MEASURE: "EC50"
  OBS_VALUE: 1150
- COMPOUND: "CC(C)(C)c1ccc(CCNC(=O)c2ccc(Oc3cc4c(cc3Cl)C(C(=O)O)CCO4)cc2)cc1 (stereo not drawn)"
  MEASURE: "EC50"
  OBS_VALUE: 140
- COMPOUND: "COC(CNC(=O)c1ccc(Oc2cc3c(cc2Cl)C(C(=O)O)CCO3)cc1)c1ccc(Cl)cc1 (stereo not drawn)"
  MEASURE: "EC50"
  OBS_VALUE: 759
- COMPOUND: "COc1ccc(C2CCCC(NC(=O)c3ccc(Oc4cc5c(cc4Cl)C(C(=O)O)CCO5)cc3)C2)cc1 (stereo not drawn)"
  MEASURE: "EC50"
  OBS_VALUE: 1120
- COMPOUND: "O=C(NC1CCC(c2cccc(Cl)c2)C1)c1ccc(Oc2cc3c(cc2Cl)C(C(=O)O)CCO3)cc1 (stereo not drawn)"
  MEASURE: "EC50"
  OBS_VALUE: 179
- COMPOUND: "COc1ccc(CCNC(=O)c2ccc(Oc3cc4c(cc3Cl)C(C(=O)O)CCO4)cc2)cc1 (stereo not drawn)"
  MEASURE: "EC50"
  OBS_VALUE: 498
- COMPOUND: "O=C(NCCc1ccc(Br)cc1Cl)c1ccc(Oc2cc3c(cc2Cl)C(C(=O)O)CCO3)cc1 (stereo not drawn)"
  MEASURE: "EC50"
  OBS_VALUE: 123
- COMPOUND: "Cc1ccccc1CCNC(=O)c1ccc(Oc2cc3c(cc2Cl)C(C(=O)O)CCO3)cc1 (stereo not drawn)"
  MEASURE: "EC50"
  OBS_VALUE: 759
- COMPOUND: "O=C(Nc1ccc(F)c(-c2ccc(Cl)cc2)c1)c1ccc(Oc2cc3c(cc2Cl)C(C(=O)O)CCO3)cc1 (stereo not drawn)"
  MEASURE: "EC50"
  OBS_VALUE: 119
- COMPOUND: "O=C(NCCC1CCCCC1)c1ccc(Oc2cc3c(cc2Cl)C(C(=O)O)CCO3)cc1 (stereo not drawn)"
  MEASURE: "EC50"
  OBS_VALUE: 407
- COMPOUND: "O=C(NCCc1ccc(SC(F)(F)F)cc1)c1ccc(Oc2cc3c(cc2Cl)C(C(=O)O)CCO3)cc1 (stereo not drawn)"
  MEASURE: "EC50"
  OBS_VALUE: 240
- COMPOUND: "O=C(NCCc1ccc(C2CC2)cc1Cl)c1ccc(Oc2cc3c(cc2Cl)C(C(=O)O)CCO3)cc1 (stereo not drawn)"
  MEASURE: "EC50"
  OBS_VALUE: 301
- COMPOUND: "O=C(NCCc1cccc(Cl)c1)c1ccc(Oc2cc3c(cc2Cl)C(C(=O)O)CCO3)cc1 (stereo not drawn)"
  MEASURE: "EC50"
  OBS_VALUE: 341
- COMPOUND: "O=C(NCC(O)c1ccccc1Cl)c1ccc(Oc2cc3c(cc2Cl)C(C(=O)O)CCO3)cc1 (stereo not drawn)"
  MEASURE: "EC50"
  OBS_VALUE: 857
- COMPOUND: "COc1cc(F)ccc1CCNC(=O)c1ccc(Oc2cc3c(cc2Cl)C(C(=O)O)CCO3)cc1 (stereo not drawn)"
  MEASURE: "EC50"
  OBS_VALUE: 292
- COMPOUND: "O=C(NC1CCN(c2cccc(C(F)(F)F)c2)C1)c1ccc(Oc2cc3c(cc2Cl)C(C(=O)O)CCO3)cc1 (stereo not drawn)"
  MEASURE: "EC50"
  OBS_VALUE: 242
- COMPOUND: "CSc1ccc(CCNC(=O)c2ccc(Oc3cc4c(cc3Cl)C(C(=O)O)CCO4)cc2)cc1 (stereo not drawn)"
  MEASURE: "EC50"
  OBS_VALUE: 426
